# TARGET OR SYSTEM: Cannabinoid receptor 1 (Homo sapiens)
# Sequence (P21554 whole entry): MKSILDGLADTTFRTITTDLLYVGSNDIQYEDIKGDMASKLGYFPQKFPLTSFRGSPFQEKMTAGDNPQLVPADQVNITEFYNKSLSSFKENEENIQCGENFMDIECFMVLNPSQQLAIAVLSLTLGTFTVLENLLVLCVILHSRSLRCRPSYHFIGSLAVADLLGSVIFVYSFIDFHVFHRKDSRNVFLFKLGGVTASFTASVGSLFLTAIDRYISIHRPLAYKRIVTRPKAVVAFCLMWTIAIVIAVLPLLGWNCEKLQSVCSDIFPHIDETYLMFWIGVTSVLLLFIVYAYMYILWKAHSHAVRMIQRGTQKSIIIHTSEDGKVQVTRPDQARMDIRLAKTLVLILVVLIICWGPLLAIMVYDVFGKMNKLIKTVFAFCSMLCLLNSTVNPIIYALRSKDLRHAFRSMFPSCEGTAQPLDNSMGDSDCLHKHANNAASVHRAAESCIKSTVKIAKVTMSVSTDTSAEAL
# TEST DESCRIPTION: Agonist activity at human CB1 receptor expressed in CHOK1 cells assessed as inhibition of forskolin-induced cAMP production treated 15 mins before forskolin challenge measured after 1 hr by HTRF assay relative to control
# Format: functional, cell-based
# CONDITION: CHO-K1
Attribute: Emax
Numeric answer only, unit % assumed.

Look over these answered cases.
{"COMPOUND": "O=C(c1csc(-c2ccncc2)n1)N1CCC(O)(c2ccccc2)[C@@H]2CCCC[C@@H]21 (single isomer, unassigned; form 4)", "UNIT STRING": "%", "Emax": 46}
{"COMPOUND": "O=C(c1ccc2ccccc2n1)N1CC[C@](O)(c2ccccc2)[C@H]2CCCC[C@H]21", "UNIT STRING": "%", "Emax": 98}
{"COMPOUND": "CN1CCC(C(=O)N2CC[C@](O)(c3ccccc3)[C@H]3CCCC[C@H]32)C1 (stereo partly drawn)", "UNIT STRING": "%", "Emax": 6}
{"COMPOUND": "O=C(c1cccc2[nH]ncc12)N1CCC(O)(c2ccccc2)[C@@H]2CCCC[C@@H]21 (stereo partly drawn)", "UNIT STRING": "%", "Emax": 95}
{"COMPOUND": "O=C(c1cccc2[nH]ccc12)N1CC[C@](O)(c2ccccc2)[C@H]2CCCC[C@H]21", "UNIT STRING": "%", "Emax": 64}
{"COMPOUND": "O=C(c1cnc2ccccc2c1)N1CC[C@@](O)(c2ccccc2)[C@@H]2CCCC[C@@H]21 (racemic)", "UNIT STRING": "%", "Emax": 69}
{"COMPOUND": "O=C(c1ccc2ncccc2c1)N1CC[C@@](O)(c2ccccc2)[C@@H]2CCCC[C@@H]21 (racemic)", "UNIT STRING": "%", "Emax": 95}

INPUT: For the compound O=C(c1csc(-c2ccncc2)n1)N1CCC(O)(c2ccccc2)[C@@H]2CCCC[C@@H]21 (single isomer, unassigned; form 2) , what Emax is on record?
OUTPUT: 18

----------
# TARGET OR SYSTEM: Cannabinoid receptor 2 (Homo sapiens, UniProt P34972)
# Sequence (P34972 whole entry): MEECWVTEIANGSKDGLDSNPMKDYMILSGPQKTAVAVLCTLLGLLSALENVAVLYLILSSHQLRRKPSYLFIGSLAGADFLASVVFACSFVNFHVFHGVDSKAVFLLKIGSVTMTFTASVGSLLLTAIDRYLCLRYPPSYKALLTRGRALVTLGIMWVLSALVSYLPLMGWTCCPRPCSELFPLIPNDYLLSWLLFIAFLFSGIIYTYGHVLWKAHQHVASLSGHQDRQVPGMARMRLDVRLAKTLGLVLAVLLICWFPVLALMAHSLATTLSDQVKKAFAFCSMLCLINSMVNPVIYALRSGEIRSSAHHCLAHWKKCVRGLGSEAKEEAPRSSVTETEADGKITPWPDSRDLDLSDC
# TEST DESCRIPTION: Agonist activity at human CB2 receptor expressed in CHOK1 cells assessed as inhibition of forskolin-induced cAMP production treated 15 mins before forskolin challenge measured after 1 hr by HTRF assay
PROPERTY LABEL: pIC50
Friendly reminder that pIC50 comes from taking -log10 of the concentration in mol/L.

{"COMPOUND": "O=C(c1ccncc1F)N1CC[C@@](O)(c2ccccc2)[C@@H]2CCCC[C@@H]21 (racemic)", "TARGET OR SYSTEM": "Cannabinoid receptor 2 (Homo sapiens, UniProt P34972)", "pIC50": 8.20}
{"COMPOUND": "Cc1cccc(C(=O)N2CC[C@@](O)(c3ccccc3)[C@@H]3CCCC[C@@H]32)n1 (racemic)", "TARGET OR SYSTEM": "Cannabinoid receptor 2 (Homo sapiens, UniProt P34972)", "pIC50": 8.21}
{"COMPOUND": "O=C(c1ccc(OCC(F)(F)F)nc1)N1CC[C@@](O)(c2ccccc2)[C@@H]2CCCC[C@@H]21 (racemic)", "TARGET OR SYSTEM": "Cannabinoid receptor 2 (Homo sapiens, UniProt P34972)", "pIC50": 7.80}
{"COMPOUND": "O=C(c1csc(-c2ccncc2)n1)N1CCC(O)(c2ccccc2)[C@@H]2CCCC[C@@H]21 (single isomer, unassigned; form 2)", "TARGET OR SYSTEM": "Cannabinoid receptor 2 (Homo sapiens, UniProt P34972)", "pIC50": 8.10}
{"COMPOUND": "O=C(c1ccon1)N1CC[C@@](O)(c2ccccc2)[C@@H]2CCCC[C@@H]21 (racemic)", "TARGET OR SYSTEM": "Cannabinoid receptor 2 (Homo sapiens, UniProt P34972)", "pIC50": 7.96}
{"COMPOUND": "Cn1ccnc1C(=O)N1CC[C@@](O)(c2ccccc2)[C@@H]2CCCC[C@@H]21 (racemic)", "TARGET OR SYSTEM": "Cannabinoid receptor 2 (Homo sapiens, UniProt P34972)", "pIC50": 6.91}
{"COMPOUND": "Cc1ccc(C(=O)N2CC[C@@](O)(c3ccccc3)[C@@H]3CCCC[C@@H]32)cn1 (racemic)", "TARGET OR SYSTEM": "Cannabinoid receptor 2 (Homo sapiens, UniProt P34972)", "pIC50": 7.85}
{"COMPOUND": "O=C1CCC(C(=O)N2CC[C@@](O)(c3ccccc3)[C@@H]3CCCC[C@@H]32)N1 (mixture of isomers)", "TARGET OR SYSTEM": "Cannabinoid receptor 2 (Homo sapiens, UniProt P34972)", "pIC50": 6.71}
{"COMPOUND": "O=C(c1ccccc1)N1CC[C@](O)(c2ccc(Cl)cc2)[C@H]2CCCC[C@@H]21", "TARGET OR SYSTEM": "Cannabinoid receptor 2 (Homo sapiens, UniProt P34972)", "pIC50": 6.81}
{"COMPOUND": "COc1ccc([C@@]2(O)CCN(C(=O)c3ccccc3)[C@H]3CCCC[C@@H]32)cc1", "TARGET OR SYSTEM": "Cannabinoid receptor 2 (Homo sapiens, UniProt P34972)", "pIC50": 6.45}

INPUT: For the compound O=C(c1ccccc1)N1CC[C@](O)(c2ccccc2)[C@H]2CCCC[C@@H]21 , what pIC50 is on record?
OUTPUT: 7.35

INPUT: For the compound O=C(c1ccc2ccccc2n1)N1CC[C@](O)(c2ccccc2)[C@H]2CCCC[C@@H]21 , what pIC50 is on record?
OUTPUT: 7.39

INPUT: For the compound CN1CCC(C(=O)N2CC[C@@](O)(c3ccccc3)[C@@H]3CCCC[C@@H]32)CC1 (racemic) , what pIC50 is on record?
OUTPUT: 6.40

INPUT: For the compound O=C([C@@H]1C[C@@H](O)CCN1)N1CC[C@@](O)(c2ccccc2)[C@@H]2CCCC[C@@H]21 (racemic) , what pIC50 is on record?
OUTPUT: 5.66

INPUT: For the compound CN1CC(C(=O)N2CC[C@@](O)(c3ccccc3)[C@@H]3CCCC[C@@H]32)CCC1=O (mixture of isomers) , what pIC50 is on record?
OUTPUT: 6.87

INPUT: For the compound O=C(c1csc(-c2ccncc2)n1)N1CCC(O)(c2ccccc2)[C@@H]2CCCC[C@@H]21 (single isomer, unassigned; form 1) , what pIC50 is on record?
OUTPUT: 9.26

INPUT: For the compound CN1CCC(C(=O)N2CC[C@](O)(c3ccccc3)[C@H]3CCCC[C@H]32)C1 (stereo partly specified) , what pIC50 is on record?
OUTPUT: 8.23

INPUT: For the compound O=C(c1ccc(Cl)cc1)N1CC[C@](O)(c2ccccc2)[C@H]2CCCC[C@H]21 , what pIC50 is on record?
OUTPUT: 9.85

INPUT: For the compound O=C(c1ccc(C(F)(F)F)nc1)N1CC[C@@](O)(c2ccccc2)[C@@H]2CCCC[C@@H]21 (racemic) , what pIC50 is on record?
OUTPUT: 7.92

INPUT: For the compound O=C(c1cc(-c2ccccc2F)n[nH]1)N1CC[C@](O)(c2ccccc2)[C@H]2CCCC[C@@H]21 , what pIC50 is on record?
OUTPUT: 5.89

INPUT: For the compound O=C(C1CNCCN1)N1CC[C@@](O)(c2ccccc2)[C@@H]2CCCC[C@@H]21 (mixture of isomers) , what pIC50 is on record?
OUTPUT: 7.21
